Numbers sourced from paper PMC9352680.

Biological target: T1, PUF4 RNA-binding domain (Saccharomyces cerevisiae, UniProt P25339 537-888)
T1 sequence: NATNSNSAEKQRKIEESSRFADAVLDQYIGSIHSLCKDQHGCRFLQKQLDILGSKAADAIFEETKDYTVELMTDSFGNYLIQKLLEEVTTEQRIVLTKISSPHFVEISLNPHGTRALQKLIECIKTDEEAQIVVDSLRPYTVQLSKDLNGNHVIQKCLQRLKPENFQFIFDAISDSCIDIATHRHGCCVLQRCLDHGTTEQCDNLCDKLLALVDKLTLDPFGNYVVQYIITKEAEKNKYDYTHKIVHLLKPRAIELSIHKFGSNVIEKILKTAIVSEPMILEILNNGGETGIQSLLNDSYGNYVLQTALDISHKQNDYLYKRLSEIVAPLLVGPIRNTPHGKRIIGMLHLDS
Experiment: Mg; RNA-MaP; 20 mM Na-HEPES pH 7.4, 30 mM KOAc, 0.75 mM MgCl2, 0.1% Tween-20, 5% glycerol, 0.1 mg/mL BSA, 2 mM DTT; 25 C; 0.0125-409.6 nM protein
Details: tags: N-His6-TEV cleaved; C-SNAP kept, Cy3B-labelled; label: tethered on chip by stalled RNA polymerase
Measured log10 Kd accompanies every entry in the list below.
Kindly note that the scale is log10 and the underlying Kd is in nM.

Study these solved cases before continuing.
[
  {
    "binder": "UCUCUUCUACACUAUAUCUCUCUU (ssRNA) [Id_ii_S1_P3E.4_K3.3_C3.2_H3.3_A3.1_F3.1_T3.2_[A10C]]",
    "value observed": 3.16
  },
  {
    "binder": "Ic_S2_P5E.1_K5.1_C5.1_H5.1_A5.1_[T5C]_[A7C]_F5.1_[A10T]_T5.1 (ssRNA) RNA: UUUGAUUAAUAUGAUAUCGUUCUUUCUUGUACUCUUUUUCUUUCUCGAUAUCAUAUUAAUCUUU",
    "value observed": 0.93
  },
  {
    "binder": "Ib_S2_P3E.1_K3.1_C3.1_H3.1_[G2T]_A3.1_[A6G]_F3.1_T3.1 (ssRNA) RNA: UUUGAUUAAUAUGAUAUCGUUCUUUCUUUUAUGUAUUCUUUCUCGAUAUCAUAUUAAUCUUU",
    "value observed": 2.28
  },
  {
    "binder": "Ic_S4_P5E.1_K5.1_C5.1_H5.1_A5.1_[T5A]_[T6C]_F5.1_[T9G]_[A10C]_T5.1 (ssRNA) RNA: UUUGACAACUGAUCGUUCUUUCUUGUAACAUGCUUCUUUCUCGAUCAGUUGUCUUU",
    "value observed": 1.41
  },
  {
    "binder": "Id_ii_S2_P3E.3_K3.2_C3.2_[T-1A]_H3.2_A3.1_F3.1_T3.2_[T9C] (ssRNA) RNA: UUUGAUUAAUAUGAUAUCGUUCUUUCUCAUAUAUAUACAUUCUUUCUCGAUAUCAUAUUAAUCUUU",
    "value observed": 2.30
  },
  {
    "binder": "UCUCUUUGUAAUCAGCUCUCUU (ssRNA) [Ic_S1_P5E.1_K5.1_C5.1_H5.1_A5.1_[T5A]_[A7C]_F5.1_[T8A]_[T9G]_[A10C]_T5.1]",
    "value observed": 3.11
  },
  {
    "binder": "Ib_S4_P3E.1_K3.1_C3.1_H3.1_[G2C]_A3.1_F3.1_[T7C]_T3.1 (ssRNA) RNA: UUUGACAACUGAUCGUUCUUUCUUCUAUACAUUCUUUCUCGAUCAGUUGUCUUU",
    "value observed": 2.79
  },
  {
    "binder": "UCUCUUUGUAUAUUCCCUAUCUCUU (ssRNA) [Ie_S1_P4E.1_K4.1_C4.1_H4.1_A4.1_F4.1_[+8CCCT]_T4.1]",
    "value observed": 0.80
  }
]

Ask: Provide measured log10 Kd value, entry: Id_ii_S2_P5E.2_K5.1_C5.2_[T-1G]_H5.1_A5.1_F5.1_T5.2_[T11G]_[A12T] (ssRNA) RNA: UUUGAUUAAUAUGAUAUCGUUCUUUCUCGUGUAUUAUUAGUUUCUUUCUCGAUAUCAUAUUAAUCUUU
Result: 0.27

Ask: Entry UCUCUUUGUGUCAUUAUCUCUU (ssRNA) [Ib_S1_P5E.1_K5.1_C5.1_H5.1_[A4G]_A5.1_[T6C]_F5.1_T5.1] needs its log10 Kd filled in; supply it.
Result: 1.49

Ask: Give log10 Kd for the following binder: Id_ii_S2_P5E.4_K5.3_C5.2_[C-2A]_H5.3_A5.1_F5.1_T5.2_[T11A]_[A12C] (ssRNA) RNA: UUUGAUUAAUAUGAUAUCGUUCUUUCUAUACACUUAUUAACUUCUUUCUCGAUAUCAUAUUAAUCUUU
Result: 2.21

Ask: Give reported log10 Kd value for UCUCUUUGUACUCACUCUCUU (ssRNA) [Ic_S1_P4E.1_K4.1_C4.1_H4.1_A4.1_[T5C]_[A6T]_[T7C]_F4.1_[T8A]_[A9C]_T4.1]
Result: 3.03

Ask: Indicate its recorded log10 Kd; the binder in question is UCUCUUUGUAUAGUAUCUCUU (ssRNA) [Ia_S1_P4E.1_K4.1_C4.1_H4.1_A4.1_[T7G]_F4.1_T4.1]
Result: 0.35
